- ASSAY: chemical genetic growth profiling, strain panel (AID 1159580);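 also: tested at 20 µM; growth read once vehicle control cultures reached saturation at 30 °C; 1 = growth at the plate median or of vehicle wells; lower values mean less growth of the strain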
- SETTINGS: S. cerevisiae deletion strains, growth OD, locus YGR078C, strain PAC10, stronger effect = lower value
Out of some 5,500 compounds screened, about 2,000 (36%) were called active. Roughly 18% stayed inconclusive and do not appear here. This is one part of the list.
MEASUREMENT LABEL: normalized growth

Answered examples (3):
OC(CCN1CCCC1)(c1ccccc1)C1CCCCC1 (configuration not stated)    0.998 (inactive)
CC(C)(C=O)Cc1cc(C(C)(C)C)c(O)c(C(C)(C)C)c1    1 (inactive)
COc1cc(C2OC(c3cc(C)ccc3[N+](=O)[O-])=NN2C(C)=O)cc(OC)c1OC (configuration not stated)    1 (inactive)

Query: What does the record list as normalized growth for Nc1c2c(nc3ccccc13)CCCC2O (configuration not stated) ?
Reply: 1.03 (inactive)

Query: Requested read-out: normalized growth. Entry: COc1ccc2c3c([nH]c2c1)C(C)=NCC3
Reply: 1 (inactive)

Query: Entry Nc1c2ccccc2nc2ccccc12 (tested in a mixture with another compound) has what normalized growth?
Reply: 0.703 (active)

* * *

- ASSAY: chemical genetic growth profiling, strain panel (AID 1159580)
- SETTINGS: S. cerevisiae deletion strains, growth OD, locus YDL134C, strain PPH21, stronger effect = lower value
About 2,000 (36%) of roughly 5,500 compounds were called active. Inconclusive results (about 18%) are left out. The list shows a part of the results.
MEASUREMENT LABEL: normalized growth
Lab note: jot the number down without any unit.

Example entries begin here.
O=C(O)/C=C/C(=O)Nc1ccc(-n2nc(C(F)(F)F)cc2C(F)(F)F)cc1    1.02
CC(=O)OC1CC(OC(C)=O)C2(C)C(CC(OC(C)=O)C3(C)C4=CC(=O)OC(=O)C4(C)CCC32)C1(C)C (stereo not given)    1.02
CC(C)=CCCC1(C)C=Cc2c(O)c3c(c(CC=C(C)C)c2O1)OC12C(=CC4CC1C(C)(C)OC2(C/C=C(\C)C(N)=O)C4=O)C3=O (stereo not given)    0.914
Nc1ccc(S(=O)(=O)c2ccc(N)cc2)cc1    1.02
NC(N)=N/N=C/c1c(Cl)cccc1Cl    1.02
CC(C)(C)OC(=O)C(C)(C)S(=O)(=O)c1ccc(Cl)cc1    0.995

Next up:
Query: Fill blank: measured normalized growth of the compound COC(=O)/C(C)=C\CC12OC(C)(C)C3CC(C=C4C(=O)c5c(O)c6c(c(CCC(C)(C)Cl)c5OC431)OC1(C)CCC(=C(C)C)C6C1)C2=O (stereo not given) is ____.
Reply: 0.976

* * *

- ASSAY: chemical genetic growth profiling, strain panel (AID 1159580)
- SETTINGS: S. cerevisiae deletion strains, growth OD, locus YLL001W, strain dnm1, stronger effect = lower value
Among all 5,500 compounds or so, about 2,000 (36%) were called active. Another 18% or so got no clear call; they are omitted. The list shows a part of the results.
Quick reference: normalized growth of the listed items.
Answer using only a numeral; do not append any unit.

C/C=C(/C)C(=O)O[C@@H]1[C@H](OC(C)=O)[C@@]2(CO)C(CC1(C)C)C1=CCC3[C@@]4(C)CC[C@H](O[C@@H]5O[C@H](C(=O)O)[C@@H](O[C@@H]6O[C@H](CO)[C@@H](O)[C@H](O)[C@H]6O)[C@H](O)[C@H]5O[C@@H]5O[C@H](CO)[C@@H](O)[C@H](O)[C@H]5O)[C@](C)(CO)C4CC[C@@]3(C)[C@]1(C)C[C@H]2O (some centres not stated)    1.01

Query: // query normalized growth value for entry CC1(C)CCC2(C(=O)O)CCC3(C)C(=CCC4C5(C)CCC(O)C(C)(C)C5C(O)CC43C)C2C1 (configuration not stated)
Reply: 1.02

* * *

- ASSAY: chemical genetic growth profiling, strain panel (AID 1159580)
- SETTINGS: S. cerevisiae deletion strains, growth OD, locus YLR370C, strain arc18, stronger effect = lower value
About 2,000 (36%) of roughly 5,500 compounds were called active. Another 18% or so got no clear call; they are omitted. The list shows a part of the results.
MEASUREMENT LABEL: normalized growth
Kindly provide the number alone.

C[C@H]1[C@H](C)CC[C@]2(CO)CC[C@]3(C)C(=CCC4[C@@]5(C)CC[C@H](O)C(C)(C)C5CC[C@]43C)[C@H]12 (stereo not given in full)    1
CC(=O)NCc1c(I)c(NC(C)=O)c(I)c(C(=O)O)c1I    1
CC(=O)/C=C\[C@@H]1[C@@]2(C)CCCC(C)(C)C2CC[C@@]1(C)O (stereo not given in full)    0.964
COC(=O)Nc1nc2ccc(S(=O)c3ccccc3)cc2[nH]1 (stereo not given)    0.998

We now examine a further molecule.
Query: GET /values?readout=normalized growth&item= COC(=O)Nc1nc2ccc(C(=O)c3ccccc3)cc2[nH]1
Reply: 0.946

* * *

Below: a set of entries, each annotated with reported normalized growth.
- ASSAY: chemical genetic growth profiling, strain panel (AID 1159580);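 also: tested at 20 µM; growth read once vehicle control cultures reached saturation at 30 °C; 1 = growth at the plate median or of vehicle wells; lower values mean less growth of the strain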
- SETTINGS: S. cerevisiae deletion strains, growth OD, locus YML120C, strain ndi1, stronger effect = lower value
Screen size: about 5,500 compounds; about 2,000 (36%) were called active. Roughly 18% stayed inconclusive and do not appear here. The list shows a part of the results.
# output: bare number, no unit

Recorded results for 5 molecules are shown here.
CC1(C)CC(O)C2(C)CCC3(C)C(=CCC4C5(C)CCC(O)C(C)(CO)C5CCC43C)C2C1 (centres undefined)    1.04
CC(C)CC(N(C)C)C1(c2ccc(Cl)cc2)CCC1 (centres undefined)    1.01
CCCOc1ccccc1-c1nc2n[nH]nc2c(=O)[nH]1    0.997
CCN1C[C@]2(OC(=O)c3ccccc3NC(C)=O)CCC(OC)[C@]34C1[C@H](CC23)[C@@]1(O)CC(OC)[C@H]2CC4C1(O)[C@H]2OC (some centres undefined)    0.974
COC(=O)C[C@H]1C(C)(C)C2(O)OC34CC2C(=O)[C@]1(C)C3CC[C@]1(C)C4=CC(=O)O[C@H]1c1ccoc1 (some centres undefined)    0.981

Query: Could you tell me which normalized growth is on file for C#C[C@]1(OC(C)=O)CCC2C3CCC4=C/C(=N\O)CCC4C3CC[C@@]21CC (some centres undefined) ?
Reply: 0.471

Query: What value of normalized growth has been reported for the following molecule? NCCC(=O)N[C@@H](Cc1cnc[nH]1)C(=O)O
Reply: 1.01

Query: Entry under review: Cc1ccc(S(=O)(=O)NC(=O)NN2CC3CCCC3C2)cc1 (centres undefined) . Reported normalized growth?
Reply: 1.01

Query: # lookup: normalized growth of C#C[C@]1(O)CCC2C3CCC4=CC(=O)CC[C@@H]4C3CC[C@@]21C (some centres undefined)
Reply: 0.977

Query: Returns the measured normalized growth for the input molecule. Input: COC1=C[C@@H]2[C@@H]3Cc4ccc(OC)c(O)c4[C@]2(CCN3C)CC1=O
Reply: 1

Query: What normalized growth value was documented for this molecule, O=C(Nc1ccc(C(=O)O)c(O)c1)c1ccccc1 ?
Reply: 0.986

* * *

- ASSAY: chemical genetic growth profiling, strain panel (AID 1159580);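 also: tested at 20 µM; growth read once vehicle control cultures reached saturation at 30 °C; 1 = growth at the plate median or of vehicle wells; lower values mean less growth of the strain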
- SETTINGS: S. cerevisiae deletion strains, growth OD, locus YNL271C, strain bni1, stronger effect = lower value
The campaign covered roughly 5,500 compounds. About 2,000 (36%) were called active. Not shown: some 18% with an inconclusive outcome. Some of the results follow.
MEASUREMENT LABEL: normalized growth
Lab note: write the figure by itself, no unit.

Below, 4 compounds whose answers are already recorded.
CC(=O)NCc1c(I)c(NC(C)=O)c(I)c(C(=O)O)c1I    0.989
C[C@@H]1C(=O)O[C@H]2[C@H]1CC[C@@]1(C)C=CC(=O)[C@@]3(C)O[C@@]213    1.01
Cc1cc(O)ccc1Cl    1.01
NC12CC3CC(CC(C3)C1)C2    1.03

Query: Field request: normalized growth | item: O=C1c2c(O)cccc2Cc2cccc(O)c21
Reply: 0.989

Query: Given the compound COc1cc(N)c(Cl)cc1C(=O)NC1CCN(Cc2ccccc2)CC1 , what is its reported normalized growth?
Reply: 0.995

Query: Return reported normalized growth; argument: O=C(O)/C=C1\CCCc2ccccc2C1O (stereo not drawn)
Reply: 0.987

Query: Param item = CC(C)CC(N(C)C)C1(c2ccc(Cl)cc2)CCC1 (stereo not drawn) ; retrieve measured normalized growth.
Reply: 1.02

Query: Can you look up the measured normalized growth of Cc1cc(O)cc(C)c1Cl for me?
Reply: 1

* * *

- ASSAY: chemical genetic growth profiling, strain panel (AID 1159580);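 also: tested at 20 µM; growth read once vehicle control cultures reached saturation at 30 °C; 1 = growth at the plate median or of vehicle wells; lower values mean less growth of the strain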
- SETTINGS: S. cerevisiae deletion strains, growth OD, locus YOR231W, strain MKK1
Among all 5,500 compounds or so, about 2,000 (36%) were called active. About 18% were inconclusive and are not listed. Cut-off read from the data, not from the text of the source: active = normalized growth mostly below about 0.91 (no sharp cut-off); inconclusive = no clear call, values can overlap the other calls; inactive = mostly above about 0.92. The list shows a part of the results.
Hi there, use one of these labels in your reply, thanks! Y for active, N for inactive

Solved entries:
C#C[C@]1(O)CCC2C3CCC4=CC(=O)CC[C@@H]4C3CC[C@@]21C (stereo partly specified)    N
Cc1cc(O)cc(C)c1Cl    N
Cc1cc(O)cc(=O)o1    N
O=C(CSCc1csc2ccccc12)Nc1ccc(F)c(Cl)c1    N

Query: Could you please tell me the result logged for Cc1cn([C@H]2C[C@H](N=[N+]=[N-])[C@@H](CO)O2)c(=O)[nH]c1=O in this assay?
Reply: N

Query: Tell me the assay call for Brc1ccc2[nH]c3c(c2c1)CCC3 please.
Reply: Y

Query: Test call for this molecule, please: O=C(Nc1ccc(Cl)cc1)SCc1c(Cl)cccc1Cl
Reply: N

Query: Test call, this molecule: CC(C)(Sc1cc(C(C)(C)C)c(O)c(C(C)(C)C)c1)Sc1cc(C(C)(C)C)c(O)c(C(C)(C)C)c1
Reply: N

Query: Fill in: this test's call for Cc1cc(O)ccc1Cl is ___
Reply: N

Query: What did this assay record as the result for C#C[C@]1(O)CCC2C3CCC4=C(CCC(=O)C4)C3CC[C@@]21C (stereo partly specified) ?
Reply: N

Query: Field: outcome | Entry: C[C@]12CCC(=O)C=C1CCC1C2[C@@H](O)C[C@@]2(C)C1CC[C@]2(O)C(=O)CO (stereo partly specified)
Reply: N
